Target: T1, PSMA (Homo sapiens, UniProt Q04609)
T1 construct: purified extracellular domain of PSMA [residues 44-750; purchased from Caltech Protein Expression Center, CA]; purchased Caltech Protein Expression Center, CA
T1 sequence (Q04609 44-750): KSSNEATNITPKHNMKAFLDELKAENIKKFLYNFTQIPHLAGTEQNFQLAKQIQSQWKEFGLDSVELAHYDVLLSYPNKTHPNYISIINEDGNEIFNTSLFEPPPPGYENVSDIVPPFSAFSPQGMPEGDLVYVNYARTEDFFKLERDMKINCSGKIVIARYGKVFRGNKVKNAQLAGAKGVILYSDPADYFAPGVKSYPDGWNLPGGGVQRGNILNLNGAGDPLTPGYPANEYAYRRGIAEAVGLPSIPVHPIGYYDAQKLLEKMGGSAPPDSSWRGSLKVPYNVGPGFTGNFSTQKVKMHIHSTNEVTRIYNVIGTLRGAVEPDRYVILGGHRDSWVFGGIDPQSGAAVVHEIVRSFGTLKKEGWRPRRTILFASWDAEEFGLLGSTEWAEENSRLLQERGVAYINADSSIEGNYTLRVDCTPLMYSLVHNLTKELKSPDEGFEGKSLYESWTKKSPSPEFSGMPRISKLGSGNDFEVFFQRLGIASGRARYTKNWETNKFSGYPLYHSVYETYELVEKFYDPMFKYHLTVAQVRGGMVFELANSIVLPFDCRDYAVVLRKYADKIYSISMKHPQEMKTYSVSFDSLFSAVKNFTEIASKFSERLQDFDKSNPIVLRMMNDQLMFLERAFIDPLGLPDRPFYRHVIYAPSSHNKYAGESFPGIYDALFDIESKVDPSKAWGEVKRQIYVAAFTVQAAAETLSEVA
Assay: Small-angle X-ray scattering of PSMA-NB complexes
Details: SAXS; PSMA alone 115 Å
measured parameter: change of Dmax on binding of PSMA to NB

NB13: anti-PSMA camel nanobody (VHH, ~16 kDa) selected by phage display (protein) VHH: QVQLQESGGGSVQTGGSLRLSCAASGYTASFSWIGYFRQAPGKEREGVAVINVGVGSTYYADSVKGRFTISRDNTENTISLEMNSLKPEDTGLYYCAGSLRWSRPPNPISEDAYNYWGQGTQVTVSSAAAYPYDVPDYGS = increased Dmax
NB37: anti-PSMA camel nanobody (VHH, ~16 kDa) selected by phage display; PDB 6XXP (protein) VHH: QVQLQESGGGSVEAGGSLRLSCARSGWPYSTYSMNWFRQAPGKEREAVAGISSTMSGIIFAESKAGQFTISQDNAKNTVYLQMNNLKPEDTAIYYCAARRDYSLSSSSDDFDYWGQGTQVTVSSAAAYPYDVPDYGS = decreased it
NB7: anti-PSMA camel nanobody (VHH, ~16 kDa) selected by phage display; PDB 6XXN (protein) VHH: QVQLQESGGGSVQAGGSLRLSCTAPGYTDSNYYMSWFRQAPGKEREWVAGVNTGRGSTSYADSVKGRFTISQDNAKNTMFLQMNSLKPEDTAIYYCAVAACHFCDSLPKTQDEYILWGQGTQVTVSSAAAYPYDVPDYGS = increased Dmax
NB8: anti-PSMA camel nanobody (VHH, ~16 kDa) selected by phage display; PDB 6XXO (protein) VHH: QVQLQESGGGSVQAGGSLRLSCARSGWPYSTYSMNWFRQAPGKEREAVAGISSTMSGIIFAESKAGQFTISQDNAKNTVYLQMNNLKPEDTAIYYCAARRDYSLSSSSDDFDYWGQGTQVTVSSAAAYPYDVPDYGS = decreased it

Reference source: patent US12516130B2
